- test-summary: Bioanalytical assessment of plasma and brain concentrations after rat DC-MES assay
- Format: in vivo
- condition-info: rat, in vivo, 100 mg/kg, Study18068, 100 mg/kg, Rat DC-MES; read-out: Mean [Palsma]
measurement-type: concentration at 2 h (µM)
Quick reminder: number only, in µM, skip the unit.

Using the record for COC[C@@H](NC(C)=O)C(=O)NCc1ccccc1 [lacosamide, Lacosamide, reference compound] , report its concentration at 2 h.
73.5

----------
- test-summary: Bioanalytical assessment of plasma and brain concentrations after 6 Hz assay
- Type: in vivo, mouse
- condition-info: Scn8a^N1768D/+, mouse, in vivo, 30 mg/kg, Study18007, 30 mg/kg, SCN8A mouse 6HZ; read-out: Mean [Palsma]
measurement-type: concentration at 2 h (µM)
Quick reminder: number only, in µM, skip the unit.

Using the record for COC[C@@H](NC(C)=O)C(=O)NCc1ccccc1 [lacosamide, Lacosamide, reference compound] , report its concentration at 2 h.
25.2
